system: Sterol Biosynthesis in Rat Hepatocytes; experiment: Sterol biosynthesis in rat hepatocytes (14C acetic acid into cholesterol); type: cell-based; conditions: Hepatocyte; cell assay, rat hepatocytes, 4 hrs pre-incubation, 4 hrs 14C acetic acid labeling; read-out: IC50
OUTCOME MEASURE: pIC50
Reminder that pIC50 means the negative base-10 logarithm of the concentration expressed in mol/L.

So what does the record say about pIC50 for O=C1C[C@H](O)C[C@@H](CCn2c(-c3ccc(F)cc3)nc(C(=O)NCc3ccccc3)c2C2CC2)O1 ?
10.06

====

system: Sterol Biosynthesis in Rat Hepatocytes; test: Sterol biosynthesis in rat hepatocytes (14C acetic acid into cholesterol); assay type: cell-based; settings: Rattus norvegicus, Hepatocyte
OUTCOME MEASURE: IC50 (nM)
Hi! Could you send only the number? It should be in nM, unit omitted.

// worked examples, IC50 included
COMPOUND	IC50, nM
O=C(O)C[C@H](O)C[C@H](O)CCn1c(-c2ccc(F)cc2)nc(C(=O)NCc2ccccc2)c1C1CC1 [Example 110]	0.218
CC(C)c1c(C(=O)NCc2ccccc2)nc(-c2ccc(F)cc2)n1CC[C@@H](O)C[C@@H](O)CC(=O)O [Example 4]	0.42
Cc1cc(CNC(=O)c2nc(-c3ccc(F)cc3)n(CC[C@@H](O)C[C@@H](O)CC(=O)O)c2C(C)C)no1 [Example 62]	0.58
CC(C)c1c(C(=O)N2CCN(c3ccc(F)cc3F)CC2)nc(-c2ccc(F)cc2)n1CC[C@@H](O)C[C@@H](O)CC(=O)O [Example 69]	0.18
COc1ccc(CNC(=O)c2nc(-c3ccc(F)cc3)n(CC[C@@H](O)C[C@@H](O)CC(=O)O)c2C2CC2)cc1 [Example 111]	0.146

// next item, IC50 requested
So what does the record say about IC50 for CN(Cc1ccccc1)C(=O)c1nc(-c2ccc(F)cc2)n(CC[C@@H](O)C[C@@H](O)CC(=O)O)c1C1CC1 [Example 112] ?
1.15

Value source: patent US20060287378A1
